System: TK-10 renal
assay_notes: NCI tumour cell line growth inhibition, 48 h; in the data active = GI50 below about 0.43 µM; inactive = the rest
One label from this list, please: yes (active), no (inactive)

Per the assay record, what outcome was assigned to `Brc1cccc(-c2cc(-c3ccc4c(c3)OCCO4)[nH]n2)c1` ?
no

Per the assay record, what outcome was assigned to `O=C(CCN1CCN(c2cnc3ccccc3n2)CC1)c1csc2ccccc12` ?
no

Per the assay record, what outcome was assigned to `CC(C)(C)OC(=O)n1cc(CNC(=S)Nc2ccccc2)c2ccccc21` ?
no

Per the assay record, what outcome was assigned to `Cc1cc2nc3c4cc(Cl)ccc4n(CCN(C)C)c3nc2cc1C` ?
no

Per the assay record, what outcome was assigned to `Cc1nn(-c2ccc(S(=O)(=O)[O-])cc2)c([O-])c1N=[N+](C)c1ccc(-c2ccc(N=Nc3ccc4c(S(=O)(=O)[O-])cc(S(=O)(=O)[O-])c(N)c4c3[O-])c([O-])c2)cc1[O-].[Cu+2].[Cu+2].[Na+]` ?
no

Per the assay record, what outcome was assigned to `CC(=O)c1ccc(Nc2cc(-c3ccccc3)nc3c(O)cccc23)cc1` ?
no

Per the assay record, what outcome was assigned to `O=C(Nc1nc2ccccc2s1)OCC(F)(F)F` ?
no

Per the assay record, what outcome was assigned to `O=C(CSc1nc2ccc([N+](=O)[O-])cc2[nH]1)Nc1ccc(F)c(Cl)c1` ?
no

Per the assay record, what outcome was assigned to `C=CC(=O)Nc1cccc(-c2nc(SC)nc(Nc3ccccc3OC)c2C#N)c1` ?
no

Per the assay record, what outcome was assigned to `O=C(c1cccs1)c1c(C(F)(F)F)n([O-])c2ccccc2[n+]1=O` ?
no

Per the assay record, what outcome was assigned to COc1ccc(-c2nn(-c3cccc(Cl)c3)cc2C2CC(c3ccccc3)=NN2C(C)=O)cc1 (stereo not given) ?
no

Per the assay record, what outcome was assigned to `Cc1[nH]c(/C=C2\C(=O)Nc3ccc(S(=O)(=O)Cc4c(Cl)cccc4Cl)cc32)c(C)c1C(=O)N1CCC[C@@H]1CN1CCCC1` ?
no

Per the assay record, what outcome was assigned to NC(CO)Cc1cnc[nH]1 (stereo not given) ?
no

Per the assay record, what outcome was assigned to `Nc1n[nH]c2ccc([C@@H]3Nc4ccc5[nH]ncc5c4[C@H]4[C@H]5CCC(C5)[C@H]43)cc12` ?
no

Per the assay record, what outcome was assigned to `C=CC(=O)N[C@H]1C=C(C)c2c(-c3cnc4ccccc4c3)c3c(N)ncnc3n2C1` ?
yes

Per the assay record, what outcome was assigned to `COc1ccc(NC(=O)Nc2n[nH]c3ccccc23)cc1` ?
no

Per the assay record, what outcome was assigned to CCCCCCCCCCCCC(=O)OC(c1cnco1)c1nc(C(O)CC(O)C(O)C(C)O)co1 (stereo not given) ?
no

Per the assay record, what outcome was assigned to `Oc1ccccc1/C=N/Nc1ccc2ccccc2n1` ?
no

Per the assay record, what outcome was assigned to `COc1cc(-n2cc(-c3ccc(Cl)c(Cl)c3)nc2SCc2ccccc2)cc(OC)c1OC` ?
no

Per the assay record, what outcome was assigned to Cc1ccc2c(C(C[N+](=O)[O-])c3cccs3)c(-c3ccccc3)[nH]c2c1 (stereo not given) ?
no
